target: FPRL1 (Homo sapiens); construct: expressed in transfected cells; host or cells: CHO-Gal6 (CHO cells with G alpha 16); test: compound-induced calcium activity on FLIPR Tetra in CHO-Gal6 cells stably expressing FPRL1; assay type: cell-based; details: relative efficacy, calcium, FLIPR Tetra
value_kind: FPRL1 (rel. eff.)

| compound | test_target | FPRL1 (rel. eff.) |
| --- | --- | --- |
| O=C(O)[C@@H]1[C@H](C(=O)NNc2ccc(Br)cc2)[C@@H]2CC[C@H]1C21CC1 (racemic) [Compound 87] | FPRL1 (Homo sapiens) | 0.89 |
| NC(=O)C1C(C(=O)Nc2ccc(Br)cc2)C2CCC1C21CC1 (racemic) [Compound 46A] | FPRL1 (Homo sapiens) | 0.85 |
| O=C(O)C1=C(C(=O)Nc2ccc(Br)cc2)C2CCC1CC2 [Compound 60] | FPRL1 (Homo sapiens) | 1.0 |
| CN(C(=O)[C@H]1[C@@H](C(=O)O)[C@H]2CC[C@@H]1C21CC1)c1ccc(Br)cc1 (racemic) [Compound 88] | FPRL1 (Homo sapiens) | 0.94 |
| COC(=O)C1C(C(=O)Nc2ccc(Br)cc2)C2CCC1C21CC1 (racemic) [Compound 83] | FPRL1 (Homo sapiens) | 0.68 |
| CCOC(=O)[C@@H]1[C@H](C(=O)Nc2ccc(Br)cc2)[C@@H]2CC[C@H]1C21CC1 (racemic) [Compound 84] | FPRL1 (Homo sapiens) | 0.74 |
| NC(=O)C1C(C(=O)Nc2ccc(I)cc2)C2C=CC1C21CC1 (racemic) [Compound 50] | FPRL1 (Homo sapiens) | 0.85 |

---

Target: FPRL1 (Homo sapiens)
Construct: expressed in transfected cells; host or cells: CHO-Gal6 (CHO cells with G alpha 16)
Sequence (P25090 1-351): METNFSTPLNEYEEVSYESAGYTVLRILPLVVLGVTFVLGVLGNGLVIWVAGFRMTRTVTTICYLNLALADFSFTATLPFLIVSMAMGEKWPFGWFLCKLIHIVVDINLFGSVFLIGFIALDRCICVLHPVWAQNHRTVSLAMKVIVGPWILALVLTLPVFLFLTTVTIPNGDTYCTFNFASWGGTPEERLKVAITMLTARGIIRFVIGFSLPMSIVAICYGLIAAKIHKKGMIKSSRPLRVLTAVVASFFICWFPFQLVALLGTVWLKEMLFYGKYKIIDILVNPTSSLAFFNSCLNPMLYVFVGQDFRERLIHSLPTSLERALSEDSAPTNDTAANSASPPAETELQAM
Assay: compound-induced calcium activity on FLIPR Tetra in CHO-Gal6 cells stably expressing FPRL1
Format: cell-based
Details: in μM, read-out: FPRL1 EC50
Description: CHO-Gal6 cells stably expressing FPRL1 were cultured in (F12, 10% FBS, 1% PSA, 400 μg/ml geneticin and 50 μg/ml hygromycin) and HEK-Gqi5 cells stable expressing FPR1 were cultured in (DMEM high glucose, 10% FBS, 1% PSA, 400 μg/ml geneticin and 50 μg/ml hygromycin). In general, the day before the experiment, 18,000 cells/well were plated in a 384-well clear bottom poly-d-lysine coated plate. […] Results are expressed as EC50 (nM) and efficacy values.
value_kind: EC50

EC50 for O=C(Nc1ccc(Br)cc1)[C@H]1[C@@H](CO)[C@H]2CC[C@@H]1C21CC1 (racemic) ?
> 10 µM
